pIC50: −log10 of the molar value.
The next entries give measured pIC50 for UniProt Q9UGN5.
Sequence (Q9UGN5 whole entry): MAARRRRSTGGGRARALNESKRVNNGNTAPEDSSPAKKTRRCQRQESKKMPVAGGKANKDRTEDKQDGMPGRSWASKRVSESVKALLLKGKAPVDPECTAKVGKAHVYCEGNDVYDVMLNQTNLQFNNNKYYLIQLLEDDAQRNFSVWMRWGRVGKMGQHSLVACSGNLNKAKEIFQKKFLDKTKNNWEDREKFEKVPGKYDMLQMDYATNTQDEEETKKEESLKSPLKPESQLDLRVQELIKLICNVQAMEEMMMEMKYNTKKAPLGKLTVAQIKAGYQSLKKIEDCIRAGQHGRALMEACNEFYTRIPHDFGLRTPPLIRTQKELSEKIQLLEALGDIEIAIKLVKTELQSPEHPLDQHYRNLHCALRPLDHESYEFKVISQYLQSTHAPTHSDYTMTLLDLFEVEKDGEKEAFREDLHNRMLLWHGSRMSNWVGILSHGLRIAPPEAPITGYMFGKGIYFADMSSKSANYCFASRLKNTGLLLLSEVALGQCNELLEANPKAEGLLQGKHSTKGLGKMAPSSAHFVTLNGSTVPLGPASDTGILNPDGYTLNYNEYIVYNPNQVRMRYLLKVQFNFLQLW
quantity_kind: pIC50

1. O=C1NCC2c3c(cccc31)CCN2C(=O)CCc1cnccn1 (configuration not stated) ... 9.00
2. O=C1NCC2c3c(cccc31)CCN2C(=O)Cc1cccnc1 (configuration not stated) ... 9.00

====

- test_system: Poly [ADP-ribose] polymerase 1 (Homo sapiens, UniProt P09874)
- Sequence (P09874 whole entry): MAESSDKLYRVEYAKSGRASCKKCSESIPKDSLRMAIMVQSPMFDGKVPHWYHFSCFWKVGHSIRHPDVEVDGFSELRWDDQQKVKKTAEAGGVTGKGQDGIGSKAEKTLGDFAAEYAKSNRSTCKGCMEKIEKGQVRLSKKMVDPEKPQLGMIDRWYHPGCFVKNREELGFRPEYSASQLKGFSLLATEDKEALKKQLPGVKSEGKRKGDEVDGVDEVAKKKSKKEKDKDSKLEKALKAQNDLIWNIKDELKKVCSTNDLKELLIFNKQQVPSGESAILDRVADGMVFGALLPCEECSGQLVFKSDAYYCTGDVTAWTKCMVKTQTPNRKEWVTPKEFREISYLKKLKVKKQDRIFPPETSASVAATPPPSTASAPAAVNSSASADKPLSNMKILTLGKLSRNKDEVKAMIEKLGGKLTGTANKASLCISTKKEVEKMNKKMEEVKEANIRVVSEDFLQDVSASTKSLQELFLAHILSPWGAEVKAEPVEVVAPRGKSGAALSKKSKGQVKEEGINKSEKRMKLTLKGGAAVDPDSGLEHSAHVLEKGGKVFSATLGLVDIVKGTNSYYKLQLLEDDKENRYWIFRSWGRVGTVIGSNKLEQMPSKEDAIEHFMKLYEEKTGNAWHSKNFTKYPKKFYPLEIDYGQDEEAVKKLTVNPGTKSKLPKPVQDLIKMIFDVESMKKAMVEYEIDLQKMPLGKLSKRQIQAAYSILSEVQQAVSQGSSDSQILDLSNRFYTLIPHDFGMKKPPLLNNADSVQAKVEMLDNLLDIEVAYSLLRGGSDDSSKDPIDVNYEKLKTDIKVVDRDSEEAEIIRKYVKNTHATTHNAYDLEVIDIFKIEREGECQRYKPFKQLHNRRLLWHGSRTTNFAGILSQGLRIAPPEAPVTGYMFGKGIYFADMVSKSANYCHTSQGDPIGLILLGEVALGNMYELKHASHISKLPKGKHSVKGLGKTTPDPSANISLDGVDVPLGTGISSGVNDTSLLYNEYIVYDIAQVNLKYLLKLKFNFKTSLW
- method_summary: Inhibition of PARP1 in human HeLa cells assessed as inhibition of hydrogen peroxide-induced poly(ADP-ribosyl)ation
quantity_kind: log10 EC50 (log10 of the value in µM)

1) O=C1NCC2c3c(cccc31)CCN2C(=O)Cc1ccccn1 (centres undefined) ... -0.64
2) O=C1NCC2c3c(cccc31)CCN2C(=O)Cc1ccc(Cl)cc1 (centres undefined) ... -0.19
3) N#Cc1ccc(CC(=O)N2CCc3cccc4c3C2CNC4=O)cc1 (centres undefined) ... -0.70
4) O=C1NCC2c3c(cccc31)CCN2C(=O)Cc1ccc(Br)cc1 (centres undefined) ... -0.70
5) O=C1NCC2c3c(cccc31)CCN2C(=O)c1ccc(Cl)cc1 (centres undefined) ... -0.59
6) O=C1NCC2c3c(cccc31)CCN2C(=O)Cc1ccccc1Cl (centres undefined) ... -0.05
7) O=C1NCC2c3c(cccc31)CCN2C(=O)CN1CCC(c2ccccc2)CC1 (centres undefined) ... -0.39
8) O=C1NCC2c3c(cccc31)CCN2C(=O)CN1CCCCC1 (centres undefined) ... -0.55
9) CN(C)C(=O)CCC(=O)N1CCc2cccc3c2C1CNC3=O (centres undefined) ... 0.45
10) O=C1NCC2c3c(cccc31)CCN2C(=O)c1ccccc1 (centres undefined) ... -0.08
11) CC(=O)N1CCC[C@H]1C(=O)N1CCc2cccc3c2C1CNC3=O (some centres undefined) ... 0.45
12) O=C1NCC2c3c(cccc31)CCN2C(=O)C1CCCC1 (centres undefined) ... -0.26
13) O=C1NCC2c3c(cccc31)CCN2Cc1ccccc1 (centres undefined) ... 0.72
14) O=C1NCC2c3c(cccc31)CCN2C(=O)Cc1cccnc1 (centres undefined) ... -0.44
15) O=C1NCC2c3c(cccc31)CCN2C(=O)Nc1ccccc1 (centres undefined) ... 0.04
16) COc1ccc(CC(=O)N2CCc3cccc4c3C2CNC4=O)cc1 (centres undefined) ... -0.80
17) O=C1NCC2c3c(cccc31)CCN2C(=O)Cc1ccc(OCc2ccccc2)cc1 (centres undefined) ... -0.24
18) Cc1c(CC(=O)N2CCc3cccc4c3C2CNC4=O)sc2ccccc12 (centres undefined) ... 0.11
19) CCN(CC)Cc1ccc(C(=O)N2CCc3cccc4c3C2CNC4=O)cc1 (centres undefined) ... -0.51
20) O=C1NCC2c3c(cccc31)CCN2C(=O)Oc1ccccc1 (centres undefined) ... 0.15
21) O=C1NCC2c3c(cccc31)CCN2C(=O)Cc1ccncc1 (centres undefined) ... 0.66
22) O=C1NCC2c3c(cccc31)CCN2C(=O)C1CCNC1 (centres undefined) ... 0.51
23) O=C1NCC2c3c(cccc31)CCN2C(=O)C1CNC1 (centres undefined) ... -0.18
24) COc1ccccc1CC(=O)N1CCc2cccc3c2C1CNC3=O (centres undefined) ... 0.23
25) O=C1NCC2c3c(cccc31)CCN2C(=O)Cc1cccc(Cl)c1 (centres undefined) ... 0.04
26) O=C1NCC2c3c(cccc31)CCN2C(=O)Cc1ccccc1 (centres undefined) ... -0.64
27) Cn1cc(CCC(=O)N2CCc3cccc4c3C2CNC4=O)cn1 (centres undefined) ... -0.38
28) O=C1NCC2c3c(cccc31)CCN2C(=O)CCc1ccccc1 (centres undefined) ... -0.46
29) COc1cccc(CC(=O)N2CCc3cccc4c3C2CNC4=O)c1 (centres undefined) ... 0.08
30) O=C1NCC2c3c(cccc31)CCN2C(=O)OCc1ccccc1 (centres undefined) ... -0.89
31) O=C1NCC2c3c(cccc31)CCN2C(=O)[C@@H]1CCCN1 (some centres undefined) ... -0.74
32) O=C(O)CCCC(=O)N1CCc2cccc3c2C1CNC3=O (centres undefined) ... 0.70
33) Cc1csc(CC(=O)N2CCc3cccc4c3C2CNC4=O)n1 (centres undefined) ... 0.46
34) O=C1NCC2c3c(cccc31)CCN2C(=O)CCn1cnc2ccccc21 (centres undefined) ... 0.20
35) O=C1NCC2c3c(cccc31)CCN2C(=O)CN1CCN(c2ccccc2)CC1 (centres undefined) ... -0.36
36) CN1CCN(CC(=O)N2CCc3cccc4c3C2CNC4=O)CC1 (centres undefined) ... 0.54
37) O=C1NCC2c3c(cccc31)CCN2C(=O)NCc1ccccc1 (centres undefined) ... -0.16
38) O=C1NCC2c3c(cccc31)CCN2S(=O)(=O)Cc1ccccc1 (centres undefined) ... 0.43
39) O=C1NCC2c3c(cccc31)CCN2C(=O)CCc1cnccn1 (centres undefined) ... -0.48

====

- method_summary: Oral bioavailability in rat at 3 mg/kg
- Type: ADME, organism-based
- assay_setup: in vivo
quantity_kind: bioavailability (%)

1. O=C1NCC2c3c(cccc31)CCN2C(=O)Cc1cccnc1 (stereo unspecified) ... 51

====

- method_summary: Intrinsic clearance in rat liver microsomes
- Assay type: ADME, Microsome
quantity_kind: microsomal CLint (µL/min/mg)

1. O=C1NCC2c3c(cccc31)CCN2C(=O)Cc1cccnc1 (stereo not drawn) ... 3
2. O=C1NCC2c3c(cccc31)CCN2C(=O)CCc1cnccn1 (stereo not drawn) ... 24
3. O=C1NCC2c3c(cccc31)CCN2C(=O)CN1CCCCC1 (stereo not drawn) ... 18

====

- method_summary: AUC in rat at 3 mg/kg, po
- Assay type: ADME, organism-based
- Design: dose 3 mg/kg, route oral
- assay_setup: plasma
quantity_kind: AUC (µM·h)

1. O=C1NCC2c3c(cccc31)CCN2C(=O)Cc1cccnc1 (stereo unspecified) ... 2.3

====

The next entries give measured IC50 for Poly [ADP-ribose] polymerase 1 (Homo sapiens, UniProt P09874).
quantity_kind: IC50 (µM)

1) O=C1NCC2c3c(cccc31)CCN2C(=O)C1CNC1 (stereo unspecified) ... 0.001
2) COc1cccc(CC(=O)N2CCc3cccc4c3C2CNC4=O)c1 (stereo unspecified) ... 0.005
3) O=C1NCC2c3c(cccc31)CCN2C(=O)c1ccccc1Cl (stereo unspecified) ... 0.035
4) COc1ccccc1CC(=O)N1CCc2cccc3c2C1CNC3=O (stereo unspecified) ... 0.027
5) O=C1NCC2c3c(cccc31)CCN2C(=O)Cc1ccccn1 (stereo unspecified) ... 0.013
6) O=C1NCC2c3c(cccc31)CCN2C(=O)Oc1ccccc1 (stereo unspecified) ... 0.009
7) O=C1NCC2c3c(cccc31)CCN2C(=O)Cc1ccccc1 (stereo unspecified) ... 0.008
8) CN1CCN(CC(=O)N2CCc3cccc4c3C2CNC4=O)CC1 (stereo unspecified) ... 0.097
9) O=C1NCC2c3c(cccc31)CCN2C(=O)c1cccc(C(=O)N2CCCNCC2)c1 (stereo unspecified) ... 0.05
10) O=C1NCC2c3c(cccc31)CCN2C(=O)CN1CCN(c2ccccc2)CC1 (stereo unspecified) ... 0.011
11) O=C1NCC2c3c(cccc31)CCN2S(=O)(=O)Cc1ccccc1 (stereo unspecified) ... 0.083

====

# reported half-life; entries follow
- method_summary: Half life in rat at 3 mg/kg, iv and po
- Assay type: ADME, organism-based
- Design: dose 3 mg/kg, route oral
- assay_setup: in vivo
quantity_kind: half-life (h)

1) O=C1NCC2c3c(cccc31)CCN2C(=O)Cc1cccnc1 (configuration not stated) ... 1.7
2) O=C1NCC2c3c(cccc31)CCN2C(=O)CCc1cnccn1 (configuration not stated) ... 1.2

====

# reported IC50; entries follow
Target chain: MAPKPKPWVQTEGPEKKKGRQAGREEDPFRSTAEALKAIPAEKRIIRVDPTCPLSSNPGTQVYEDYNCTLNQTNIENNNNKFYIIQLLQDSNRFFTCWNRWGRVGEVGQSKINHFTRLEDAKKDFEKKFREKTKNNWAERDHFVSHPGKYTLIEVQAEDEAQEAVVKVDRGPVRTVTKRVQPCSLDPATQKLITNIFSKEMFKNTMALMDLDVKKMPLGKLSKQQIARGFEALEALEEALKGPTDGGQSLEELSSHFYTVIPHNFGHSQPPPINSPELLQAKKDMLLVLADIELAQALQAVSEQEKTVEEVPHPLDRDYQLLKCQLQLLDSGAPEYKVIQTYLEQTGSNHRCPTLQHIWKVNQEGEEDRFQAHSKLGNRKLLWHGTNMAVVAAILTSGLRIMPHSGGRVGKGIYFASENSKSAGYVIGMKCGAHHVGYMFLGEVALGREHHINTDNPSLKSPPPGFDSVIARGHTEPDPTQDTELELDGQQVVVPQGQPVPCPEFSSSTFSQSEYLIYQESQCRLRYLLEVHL
quantity_kind: IC50 (nM)

1. O=C1NCC2c3c(cccc31)CCN2C(=O)Cc1cccnc1 (configuration not stated) ... 50
2. O=C1NCC2c3c(cccc31)CCN2C(=O)CCc1cnccn1 (configuration not stated) ... 70
